Here the recorded inhibition at 10 µM is given for each entry.
measured_on: NMDA receptor composed of four subunits including 2 sets of heterodimers of NR1 and NR2B (Homo sapiens)
Construct: host or cells: HEK293 (tetracycline-induced expression)
Sequence (Q13224 27-1484, other chains not shown): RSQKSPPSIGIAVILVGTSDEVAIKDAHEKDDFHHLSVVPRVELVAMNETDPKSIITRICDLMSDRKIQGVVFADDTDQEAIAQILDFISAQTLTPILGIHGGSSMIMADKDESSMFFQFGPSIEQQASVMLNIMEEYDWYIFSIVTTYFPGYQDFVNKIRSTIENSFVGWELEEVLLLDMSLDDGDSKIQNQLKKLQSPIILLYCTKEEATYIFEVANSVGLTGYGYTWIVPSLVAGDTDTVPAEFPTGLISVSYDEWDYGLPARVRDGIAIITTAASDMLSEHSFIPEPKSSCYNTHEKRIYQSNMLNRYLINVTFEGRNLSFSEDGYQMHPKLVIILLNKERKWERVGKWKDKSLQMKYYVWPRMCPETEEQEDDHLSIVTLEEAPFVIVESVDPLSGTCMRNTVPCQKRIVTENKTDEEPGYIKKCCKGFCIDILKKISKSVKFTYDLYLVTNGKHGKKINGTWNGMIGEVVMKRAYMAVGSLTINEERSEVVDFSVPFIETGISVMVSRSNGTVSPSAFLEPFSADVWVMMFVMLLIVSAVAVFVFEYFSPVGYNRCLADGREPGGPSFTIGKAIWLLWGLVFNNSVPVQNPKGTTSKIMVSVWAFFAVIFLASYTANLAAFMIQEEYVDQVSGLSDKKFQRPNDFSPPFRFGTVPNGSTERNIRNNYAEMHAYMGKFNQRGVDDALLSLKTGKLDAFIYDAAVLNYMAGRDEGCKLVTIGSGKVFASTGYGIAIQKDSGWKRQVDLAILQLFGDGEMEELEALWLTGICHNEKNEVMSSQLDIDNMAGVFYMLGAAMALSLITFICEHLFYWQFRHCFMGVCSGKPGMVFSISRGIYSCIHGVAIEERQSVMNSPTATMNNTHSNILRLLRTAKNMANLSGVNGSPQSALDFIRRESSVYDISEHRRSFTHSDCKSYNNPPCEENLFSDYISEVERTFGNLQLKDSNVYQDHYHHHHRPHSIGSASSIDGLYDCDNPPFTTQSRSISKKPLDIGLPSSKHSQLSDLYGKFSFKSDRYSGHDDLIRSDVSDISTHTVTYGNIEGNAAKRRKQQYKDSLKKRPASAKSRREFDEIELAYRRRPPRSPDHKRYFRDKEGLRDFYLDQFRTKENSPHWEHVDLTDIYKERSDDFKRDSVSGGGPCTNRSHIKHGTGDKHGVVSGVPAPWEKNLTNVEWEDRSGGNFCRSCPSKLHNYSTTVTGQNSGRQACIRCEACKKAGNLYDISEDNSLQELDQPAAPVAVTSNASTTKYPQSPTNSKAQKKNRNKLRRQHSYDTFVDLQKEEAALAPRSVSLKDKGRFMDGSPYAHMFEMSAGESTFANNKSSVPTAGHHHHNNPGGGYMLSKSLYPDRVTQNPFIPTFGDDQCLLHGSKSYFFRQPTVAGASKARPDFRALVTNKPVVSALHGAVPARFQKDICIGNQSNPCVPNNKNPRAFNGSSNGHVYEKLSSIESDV
protocol_summary: NR2B Ca2+ influx assay (FLIPR, Fluo-4) in HEK293 cells expressing human GRIN1 and GRIN2B
Format: cell-based
condition_context: HEK293, 10 μM final compound concentration, glutamic acid/glycine-induced Ca2+ influx, read-out: inhibitory rate (10 μM compound concentration)
measured_attribute: inhibition at 10 µM

molecule="COc1ccc2nc(C)n(C)c2c1CNC(=O)c1ccc(C(F)(F)F)cc1 [Example 237]" assay_result=68%
molecule="COc1ccc(C(=O)NCc2c(C)ccc3ncn(C)c23)cc1F [Example 129]" assay_result=88%
molecule="COc1ccc2[nH]nnc2c1CNC(=O)c1ccc(OC(F)(F)F)c(F)c1 [Example 227]" assay_result=97%
molecule="COc1ccc2ncn(C)c2c1CNC(=O)c1cnc(C(F)(F)F)c(Cl)c1 [Example 113]" assay_result=90%
molecule="O=C(NCc1c(C2CC2)ccc2[nH]ncc12)c1cc(F)c(F)c(Cl)c1 [Example 95]" assay_result=95%
molecule="COc1ccc2ncn(C)c2c1CNC(=O)c1ccc(C)c(C(F)(F)F)c1 [Example 47]" assay_result=85%

// provenance: patent US11230541B2
